Readings of pEC50 for the listed binders
- testedOn: T1, human CXCR5 (human, UniProt P32302 1-372)
- T1 construct: also called hCXCR5; C-X-C chemokine receptor type 5
- T1 sequence: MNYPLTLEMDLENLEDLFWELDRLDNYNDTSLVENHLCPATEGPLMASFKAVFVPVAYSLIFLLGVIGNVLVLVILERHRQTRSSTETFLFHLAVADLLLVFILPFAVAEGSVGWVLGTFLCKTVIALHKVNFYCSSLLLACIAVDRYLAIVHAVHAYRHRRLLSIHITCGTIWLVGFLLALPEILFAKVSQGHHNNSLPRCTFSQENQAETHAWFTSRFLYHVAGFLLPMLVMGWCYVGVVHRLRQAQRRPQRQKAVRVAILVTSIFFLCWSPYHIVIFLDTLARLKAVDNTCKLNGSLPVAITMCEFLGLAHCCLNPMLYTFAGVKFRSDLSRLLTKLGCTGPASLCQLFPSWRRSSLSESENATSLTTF
- methodDescription: flow cytometry, human tonsil Tfh cells
- Description: Following centrifugation, red blood cell lysis was performed on the pellet using an ammonium chloride lysis buffer. […] The cell binding titration curves were generated by plotting the gMFI of the antigen binding population against the log of CXCR5 antibody concentration. EC₅₀ values were determined using GraphPad Prism® (version 6.0, GraphPad Software, Inc, San Diego, Calif.) nonlinear-regression curve fits and a sigmoidal log of agonist dose-response model, according to the following equation
Hey, just a heads up that pEC50 is the negative log base 10 of the concentration in molar.

Answered examples (2):
Humanized 11G2 153/156 (antibody, human IgG1, V domains shown, also called h11G2 VH (XC156)/VL (XC153)) VH: EVQLVESGGGLVQPGGSLRLSCATSGFTFTDFYMSWVRQAPGKGLEWVGFIRNKANGYTTEYSASVKGRFTISRDNAKNSLYLQMNSLRAEDTAVYYCVRVYGSTLHYWGQGTLVTVSS VL: DIQMTQSPSSLSASVGDRVTITCRASESVEYHGTSLMHWYQQKPGKAPKLLIYAASNVESGVPSRFSGSGSGTDFTLTISSLQPEDFATYFCQQSRKVPWTFGQGTKVEIK    11.49
Afucosyl humanized 11G2 154/155 (antibody, human IgG1, kappa, V domains shown, afucosylated Fc glycan (Asn297), also called afucosyl h11G2 XC154/XC155; afucosylated h11G2 VL XC154/VH XC155) VH: EVQLVESGGGLVQPGGSLRLSCAASGFTFTDFYMSWVRQAPGKGLEWVGFIRNKANGYTTEYSASVKGRFTISRDNAKNSLYLQMNSLRAEDTAVYYCARVYGSTLHYWGQGTLVTVSS VL: DIQMTQSPSSLSASVGDRVTITCRASESVEYHGTSLMHWYQQKPGKAPKLLIYAASNVESGVPSRFSGSGSGTDFTLTISSLQPEDFATYYCQQSRKVPWTFGQGTKVEIKR    10.98

Now examine the next entry.
# pEC50 lookup, item Afucosyl Chimeric 11G2 (antibody, human IgG1, kappa, V domains shown, afucosylated Fc glycan (Asn297), made in Potelligent CHOK1SV cells) VH: EVKLVESGGGLVQPGGSLRLSCATSGFTFTDFYMSWVRQPPGRALEWLGFIRNKANGYTTEYSASVKGRFTISRDNSQSILYLQMNTLRAGDSATYYCVRVYGSTLHYWGQGTILTVSS VL: DVVVTQSPDSLAVSLGQRATISCRASESVEYHGTSLMHWYQQKPGQPPKLLIYAASNVESGVPARFSGSGSGTDFSLNIHPVEEGDIAMYFCQQSRKVPWTFGGGTKLEIKR
10.34
